Hello, the source for this data is patent US20190070396A1, in case you need it.

Run description: in vivo
Recorded conditions: dog, 8 mg
Measurement label: AUC (ng·h/mL)

> print(dat)
                                   compound  measurement.label  units.symbol   val
1  C=CCN1CC[C@]23c4c5ccc(O)c4O[C@H]2C(=O)CC[C@@]3(O)[C@H]1C5 [naloxone]                AUC       ng·h/mL  58.3

###

Run description: in vivo
Recorded conditions: dog, im, 0.4 mg
Measurement label: Cmax (ng/mL)

> print(dat)
                                        smi  units.symbol  val
1  C=CCN1CC[C@]23c4c5ccc(O)c4O[C@H]2C(=O)CC[C@@]3(O)[C@H]1C5         ng/mL    9

###

Run description: in vivo
Recorded conditions: dog, im, 0.4 mg
Measurement label: AUC (ng·h/mL)

> print(dat)
                                        smi  measurement.label  val
1  C=CCN1CC[C@]23c4c5ccc(O)c4O[C@H]2C(=O)CC[C@@]3(O)[C@H]1C5                AUC   10

###

Run description: in vivo
Recorded conditions: dog, 8 mg
Measurement label: Tmax (min)

> print(dat)
                                        smi  measurement.label  units.symbol  val
1  C=CCN1CC[C@]23c4c5ccc(O)c4O[C@H]2C(=O)CC[C@@]3(O)[C@H]1C5               Tmax           min   18

###

Run description: in vivo
Recorded conditions: dog, 0.8 mg
Measurement label: AUC (ng·h/mL)

> print(dat)
                                   molecule  units.symbol   val
1  C=CCN1CC[C@]23c4c5ccc(O)c4O[C@H]2C(=O)CC[C@@]3(O)[C@H]1C5 [naloxone]       ng·h/mL  8.33
